Reference source for all entries: PubChem BioAssay (NCI)

Test system: SK-MEL-5 melanoma
Experiment: NCI-60 one-dose screen, 48 h (100 = growth as untreated, 0 = no growth, -100 = all killed)
Details: 10 µM unless noted
The panel holds about 83,000 compounds, 20% with a hit somewhere; the sample as a whole holds those more often.
List of growth values.
Numbers only here, please. The scale is %.

growth in this record for Cn1cc(-c2cnn3c(N)c(Br)c([C@@H]4CCCNC4)nc23)cn1 : 28.6

###

Test system: COLO 205 colon
Test: NCI-60 one-dose screen, 48 h
Details: 10 µM unless noted
About 83,000 compounds went through this panel and 20% of them were active in at least one assay; those are over-represented in the sample as a whole. Active and inactive are the calls of the source. The calls were made as follows: active = growth percent below 10; inactive = the rest.
Respond with a class label; see active, inactive

Would you please look over these solved cases?
chem smiles | answer label
COc1ccc(Nc2ncccc2NC(=O)c2cn(Cc3cccc(Oc4ccccc4)c3)nn2)cc1 | inactive
N#CC(C#N)=NO | inactive

Problem: // outcome(item) with item = CCN1CCN(c2nc(C)cc(N(CCNc3ccnc4cc(Cl)ccc34)Cc3ccc4c(c3)OCO4)n2)CC1
Solution: active

Problem: // outcome(item) with item = CCOc1cccc(/C=N/NC(=O)c2ccccc2Nc2ccnc(C(F)(F)F)c2)c1O
Solution: active

Problem: // outcome(item) with item = CCOC(=O)Sc1ncnc2nc[nH]c12
Solution: inactive

Problem: // outcome(item) with item = C=CC(=O)Nc1cccc(Nc2nc(Nc3ccc(N4CCN(C(C)=O)CC4)cc3OC)ncc2C(F)(F)F)c1
Solution: active

###

List of growth values.
Tested on: SW-620 colon
Assay: NCI-60 one-dose screen, 48 h (100 = growth as untreated, 0 = no growth, -100 = all killed)
Conditions: 10 µM unless noted
The panel holds about 83,000 compounds, 20% with a hit somewhere; the sample as a whole holds those more often.
Numbers only here, please. The scale is %.

In the examples that follow, each entry is paired with its recorded growth.
molecule | measured on | value unit | growth
NC1=Nc2cc(OCCCN3Cc4ccccc4C3)c(OCC3CC3)cc2C12CCCC2 | SW-620 colon | % | 76.3
CC1=CC2c3oc(-c4ccccc4)c(C(=O)c4ccccc4)c3CNC2C=C1 (centres undefined) | SW-620 colon | % | 97.1
COc1ccc2c(CCCc3ccc(Cl)cc3Cl)c3[n+](cc2c1OC)CCc1cc2c(cc1-3)OCO2 | SW-620 colon | % | 4.21

Measured growth for this entry CN(C[C@@H]1COCCO1)S(=O)(=O)Nc1ccc2ccc3ncc(-c4cnn(C)c4)cc3c(=O)c2c1 on SW-620 colon: 37

Measured growth for this entry CCN(CC)Cc1cc(Nc2cc(C(F)(F)F)c(C#N)c3nc4ccccc4n23)ccc1O on SW-620 colon: 14.7

Measured growth for this entry CC12O[C@H](C[C@@H](OC(=O)CCC(=O)O)[C@H]1O)n1c3ccccc3c3c4c(c5c6ccccc6n2c5c31)C(=O)NC4=O on SW-620 colon: 36.2

Measured growth for this entry Cn1cc(-c2ncnc3ccc(-c4cnc(Cl)c(NS(C)(=O)=O)c4)cc23)c2ccccc21 on SW-620 colon: 21.3

Measured growth for this entry Cc1cc(Oc2ccccc2)ccc1Nc1ncnc2ccc(-c3cnc(Cl)c(NS(C)(=O)=O)c3)cc12 on SW-620 colon: 38.8

Measured growth for this entry N#Cc1ccc(-n2nnc3ccccc32)cc1C#N on SW-620 colon: 94.4

###

System: COLO 205 colon
Assay: NCI-60 one-dose screen, 48 h
Settings: 10 µM unless noted
The panel holds about 83,000 compounds, 20% with a hit somewhere; the sample as a whole holds those more often. Active and inactive are the calls of the source. The calls were made as follows: active = growth percent below 10; inactive = the rest.
Respond with a class label; see active, inactive

chem smiles | answer label
C/C(=C(/c1ccc(Cl)cc1)c1ccc(OCCN2CCCCCC2)cc1)c1ccccc1 | inactive
COC(=O)[C@]12CC[C@@H](C)[C@H](C)[C@@H]1C1=CC[C@@H]3[C@@]4(C)C(c5cnco5)=C[C@@](C)(CO)C4=CC[C@@]3(C)[C@]1(C)CC2 | inactive
Cc1nc2ccc(-n3ncc(C(=O)c4cc5ccccc5[nH]4)c3N)cc2[nH]1 | inactive

Attention now shifts to the item below.
Problem: // outcome(item) with item = c1cc[n+](Cc2c3ccccc3cc3c2ccc2ccccc23)cc1
Solution: active

###

Tested on: KM12 colon
Experiment: NCI-60 one-dose screen, 48 h
Settings: 10 µM unless noted
Compounds without any hit were thinned out: in the full panel of roughly 83,000, 20% have a hit. Calls of active or inactive are those of the source. Rule for the calls: active = growth percent below 10; inactive = the rest.
Respond with a class label; see class 1 for active, class 0 for inactive

Would you please look over these solved cases?
molecule | measured on | answer label
CCN(CC)C(=O)C[N+](C)(C)CCOC(c1ccccc1)c1ccccc1 | KM12 colon | class 0
COc1ccc(OC)c(NC2=C(SCCc3ccccc3)C(=O)c3ccccc3C2=O)c1 | KM12 colon | class 0

Attention now shifts to the item below.
Problem: // outcome(item) with item = CCCNC(=O)c1cn2ncnc(Nc3cc(C(=O)NC4CC4)ccc3C)c2c1C
Solution: class 0

###

Tested on: U251 CNS
Experiment: NCI-60 one-dose screen, 48 h (100 = growth as untreated, 0 = no growth, -100 = all killed)
Settings: 10 µM unless noted
Method: Growth inhibition of the U251 human tumor cell line is measured as a screen for anti-cancer activity. Cells are grown in 96 well plates and exposed to the test compound for 48 hours. Compounds are tested at a single concentration, which is 10^-5 M for most compounds. The reported endpoint is percent growth (GI% or GIPRCNT), where numbers from 0 - 100% represent growth inhibition, and numbers from -100% - 0 represent cell death. For example, a value of 40 represents 60% growth inhibition. […]
About 83,000 compounds went through this panel and 20% of them were active in at least one assay; those are over-represented in the sample as a whole.
property name: growth (%)
Numbers only here, please. The scale is %.

In the examples that follow, each entry is paired with its recorded growth.
molecule | value unit | growth
COC(=O)[C@@H](OC)[C@@H]1Cc2cc3cc(OC4CC(OC5CC(O)C(O)C(C)O5)C(O)C(C)O4)c(C)c(O)c3c(O)c2C(=O)[C@H]1OC1CC(OC2CC(OC3CC(C)(O)C(O)C(C)O3)C(O)C(C)O2)C(O)C(C)O1 (stereo not given in full) | % | 2.62
Nc1c2c(c(O)c3c1=C(CO)C=N3)=NCCS2=O (stereo not given) | % | -89.8
C[C@@H](Nc1cc(F)cc(F)c1)c1cc(C(=O)N(C)C)cc2c(=O)cc(N3CCOCC3)oc12 | % | 61.4
O=C(O)C1(Cc2cccc(Nc3nccs3)n2)CCC(Oc2cccc(Cl)c2F)CC1 (stereo not given) | % | 60.8
O=CC(OC(=O)c1ccccc1)C(OC(=O)c1ccccc1)C(COC(c1ccccc1)(c1ccccc1)c1ccccc1)OC(=O)c1ccccc1 (stereo not given) | % | 19
CC(C)[C@@H](C)/C=C/[C@@H](C)[C@H]1CCC2=C3C=CC4=CC(=O)CC[C@]4(C)[C@H]3CC[C@@]21C | % | 88.7

Next item in the queue.
growth in this record for C=CC(=O)Nc1cc2c(Nc3ccc(F)c(Cl)c3)ncnc2cc1OCCCN1CCOCC1 : 21.2

###

Tested on: KM12 colon
Assay: NCI-60 one-dose screen, 48 h (100 = growth as untreated, 0 = no growth, -100 = all killed)
Conditions: 10 µM unless noted
About 83,000 compounds went through this panel and 20% of them were active in at least one assay; those are over-represented in the sample as a whole.
Lab note: anything with growth at or over 30% counts as condition met; the rest go in condition not met.

Would you please look over these solved cases?
chem smiles | answer label
Cc1cc(N(CCNc2ccnc3cc(Cl)ccc23)Cc2cccs2)nc(Cl)n1 | condition met
O=C(NOCCO)c1ccc2cncn2c1Nc1ccc(I)cc1F | condition not met
COc1cc(Nc2ncc(F)c(Nc3ccc4c(n3)NC(=O)C(C)(C)O4)n2)cc(OC)c1OC | condition not met

Attention now shifts to the item below.
Problem: Please indicate if the recorded growth for Nc1c(C(=O)c2ccccc2)sc2nc(-c3cccs3)ccc12 meets or exceeds 30%.
Solution: condition not met

###

Tested on: MDA-MB-231 breast
Assay: NCI-60 one-dose screen, 48 h
Conditions: 10 µM unless noted
Experimental: Cells are grown in 96 well plates and exposed to the test compound for 48 hours. Compounds are tested at a single concentration, which is 10^-5 M for most compounds. The reported endpoint is percent growth (GI% or GIPRCNT), where numbers from 0 - 100% represent growth inhibition, and numbers from -100% - 0 represent cell death. For example, a value of 40 represents 60% growth inhibition. A value of 0 means no net growth occurred over the course of the experiment. […]
About 83,000 compounds went through this panel and 20% of them were active in at least one assay; those are over-represented in the sample as a whole. The source made the active and inactive calls. The calls were made as follows: active = growth percent below 10; inactive = the rest.
Respond with a class label; see 1 for active, 0 for inactive

Would you please look over these solved cases?
molecule | answer label
Cc1cc(-c2cc(O)ccc2Cl)cc2nnc(Nc3ccc(OCCN4CCCC4)cc3)nc12 | 1
CCOc1ccc(N=C(C)Nc2ccc(OCC)cc2)cc1 | 0
CC(=Nc1ccccc1)C1=C(O)C(Cc2ccc(O)cc2)NC1=O (stereo not given) | 0
C[C@@H](Oc1cc(-n2cnc3ccc(CN4CCN(C)CC4)cc32)sc1C(N)=O)c1ccccc1C(F)(F)F | 0
COc1cc2c3c(c1)nc(C)n3CCC2 | 0

Problem: // outcome(item) with item = CC(=O)Oc1ccccc1C(=O)N=C1[Se]CCN1C(=O)c1ccccc1OC(C)=O
Solution: 1

Problem: // outcome(item) with item = N[C@@H]1CCCN(c2c(/C=C3\SC(=O)NC3=O)cccc2-c2ccccc2)C1
Solution: 0

Problem: // outcome(item) with item = CCCCCCCC(=O)SCC/C=C/[C@@H]1CC(=O)NCc2cccc(n2)C2=N[C@@](C)(CS2)C(=O)N[C@@H](C(C)C)C(=O)O1
Solution: 0

Problem: // outcome(item) with item = COc1cc2c(Oc3ccc4[nH]c(C)cc4c3F)ncnc2cc1OCCCN1CCCC1
Solution: 0

Problem: // outcome(item) with item = CCN(CC)c1cc2oc3cc(N)cc(=N)c-3nc2cc1C
Solution: 0
